test system: 138582-337-R-J1-PDC complex spheroid viability; test: Anticancer human tumor 138582-337-R-J1-PDC patient-derived Merkel cell tumor cell line growth inhibition; conditions: second compound 0.1 µM; first compound 0.316 µM; stronger effect = lower value
Exercise: for every item that follows, state its recorded viability, T/C.
Answers are plain numbers, in %.

Look over these answered cases.
compound: O=C(C=Cn1cnc(-c2cc(C(F)(F)F)cc(C(F)(F)F)c2)n1)NNc1cnccn1 + NC1CCC(NC2CC2c2ccccc2)CC1
viability, T/C, %: 22.6
//
compound: CC1COCCN1c1cc(-c2ccnn2C)c2ccnc(-c3ccn[nH]3)c2n1 (centres undefined) + NC1CC1c1ccc(-c2cccc(O)c2)cc1
viability, T/C, %: 26.3
//
compound: O=C(C=Cn1cnc(-c2cc(C(F)(F)F)cc(C(F)(F)F)c2)n1)NNc1cnccn1 + NC1CC1c1ccc(-c2cccc(O)c2)cc1
viability, T/C, %: 16.3
//
compound: Nc1ncn(C2CC(O)C(CO)O2)c(=O)n1 (centres undefined) + NC1CC1c1ccc(-c2cccc(O)c2)cc1
viability, T/C, %: 77.8
//
compound: CC1(C)CCC(CN2CCN(c3ccc(C(=O)NS(=O)(=O)c4ccc(NCC5CCOCC5)c([N+](=O)[O-])c4)c(Oc4cnc5[nH]ccc5c4)c3)CC2)=C(c2ccc(Cl)cc2)C1 + NC1CCC(NC2CC2c2ccccc2)CC1
viability, T/C, %: 92.5
//
compound: CC1COCCN1c1cc(C2(S(C)(=N)=O)CC2)nc(-c2ccnc3[nH]ccc23)n1 (centres undefined) + NC1CCC(NC2CC2c2ccccc2)CC1
viability, T/C, %: 83.2

I have 3 compounds here; please give me viability, T/C for each one.
1. CC1(C)CCC(CN2CCN(c3ccc(C(=O)NS(=O)(=O)c4ccc(NCC5CCOCC5)c([N+](=O)[O-])c4)c(Oc4cnc5[nH]ccc5c4)c3)CC2)=C(c2ccc(Cl)cc2)C1 + NC1CC1c1ccc(-c2cccc(O)c2)cc1
2. COc1ccc([C@@H](O)c2cc(-c3ncnc4cc(N5CCOCC5)ccc34)c(F)cc2Cl)nn1 + NC1CC1c1ccc(-c2cccc(O)c2)cc1
3. CC(C)c1c(-c2ccccc2)nc2c(C#N)c[nH]n2c1=O + NC1CC1c1ccc(-c2cccc(O)c2)cc1

[56.7, 57, 66.6]

----------
tested on: 138582-337-R-J1-PDC complex spheroid viability; experiment: Anticancer human tumor 138582-337-R-J1-PDC cell line growth inhibition; settings: second compound 0.316 µM; first compound 0.949 µM; stronger effect = lower value;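 further: spheroids exposed to agents for 7 days; 100% = DMSO vehicle control viability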
Exercise: for every item that follows, state its recorded viability, T/C.
Answers are plain numbers, in %.

Look over these answered cases.
compound: Nc1ccccc1NC(=O)c1ccc(CNC(=O)OCc2cccnc2)cc1 + NC1CC1c1ccc(-c2cccc(O)c2)cc1
assay result: 6.5
--
compound: O=C(C=Cc1cccc(S(=O)(=O)Nc2ccccc2)c1)NO + NC1CC1c1ccc(-c2cccc(O)c2)cc1
assay result: 0.35
--
compound: COc1cc(C2c3cc4c(cc3C(OC3OC5COC(C)OC5C(O)C3O)C3COC(=O)C23)OCO4)cc(OC)c1O (stereo not given) + NC1CCC(NC2CC2c2ccccc2)CC1
assay result: 74
--
compound: COc1cc(C2c3cc4c(cc3C(OC3OC5COC(C)OC5C(O)C3O)C3COC(=O)C23)OCO4)cc(OC)c1O (stereo not given) + NC1CC1c1ccc(-c2cccc(O)c2)cc1
assay result: 52.3
--
compound: NS(=O)(=O)OCC1CC(n2ccc3c(NC4CCc5ccccc54)ncnc32)CC1O (stereo not given) + NC1CCC(NC2CC2c2ccccc2)CC1
assay result: 37.4

I have 5 compounds here; please give me viability, T/C for each one.
1. O=C(C=Cc1cccc(S(=O)(=O)Nc2ccccc2)c1)NO + NC1CCC(NC2CC2c2ccccc2)CC1
2. CCN(c1cc(-c2ccc(CN3CCOCC3)cc2)cc(C(=O)NCc2c(C)cc(C)[nH]c2=O)c1C)C1CCOCC1 + NC1CCC(NC2CC2c2ccccc2)CC1
3. Nc1ccccc1NC(=O)c1ccc(CNC(=O)OCc2cccnc2)cc1 + NC1CCC(NC2CC2c2ccccc2)CC1
4. CCN(c1cc(-c2ccc(CN3CCOCC3)cc2)cc(C(=O)NCc2c(C)cc(C)[nH]c2=O)c1C)C1CCOCC1 + NC1CC1c1ccc(-c2cccc(O)c2)cc1
5. NS(=O)(=O)OCC1CC(n2ccc3c(NC4CCc5ccccc54)ncnc32)CC1O (stereo not given) + NC1CC1c1ccc(-c2cccc(O)c2)cc1

1: 34.7; 2: 124; 3: 57; 4: 59; 5: 24.2
